Emax listing for selected compounds.
measured_target: 5HT2A receptor (Homo sapiens)
assay_name: cell-based
Parameters: expressed in transfected cells; host or cells: HEK293T cells, transient co-transfection
run_conditions: HEK-293T, BRET2 Gαq dissociation, HEK293T, normalized to 5-HT; read-out: 5HTA Gq Emax (%)
measurement_kind: Emax (%)

• Fc1cc(Cl)c2[nH]nc(C34CNCC3C4)c2c1 (centres unmarked) [Example 185] = 78.1
• COC1(c2c[nH]c3c(Cl)cccc23)CNC1 [Example 254] = 88.3
• CCCN1CCC2CC2(c2n[nH]c3c(Cl)cccc23)C1 (centres unmarked) [Example 182] = 78.9
• Fc1cccc2c(C34CNCC3C4)n[nH]c12 (centres unmarked) [Example 187] = 71.6
• Clc1cccc2c(C34CNCC3C4)c[nH]c12 (centres unmarked) [Example 270] = 93.8

* * *

As shown below, each of these compounds has a reported EC50 value.
measured_target: 5HT2A receptor (Homo sapiens, UniProt P28223)
Sequence (P28223 whole entry): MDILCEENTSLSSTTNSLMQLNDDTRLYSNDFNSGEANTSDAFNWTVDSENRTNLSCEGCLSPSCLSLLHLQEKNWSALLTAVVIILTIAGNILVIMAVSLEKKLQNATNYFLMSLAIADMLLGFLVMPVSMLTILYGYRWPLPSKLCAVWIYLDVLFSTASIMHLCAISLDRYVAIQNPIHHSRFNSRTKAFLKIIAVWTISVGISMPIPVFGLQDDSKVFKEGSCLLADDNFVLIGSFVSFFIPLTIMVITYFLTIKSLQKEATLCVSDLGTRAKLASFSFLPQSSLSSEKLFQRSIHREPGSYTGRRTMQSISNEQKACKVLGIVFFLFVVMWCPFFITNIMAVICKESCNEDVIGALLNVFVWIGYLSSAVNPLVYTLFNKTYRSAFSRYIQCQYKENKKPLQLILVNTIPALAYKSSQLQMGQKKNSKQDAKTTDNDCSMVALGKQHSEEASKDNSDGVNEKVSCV
assay_name: cell-based
Design: expressed in transfected cells; host or cells: HEK293T cells, transient co-transfection
run_conditions: 5HT2A Gq EC50 (nM), BRET2 Gαq dissociation, HEK293T cells
measurement_kind: EC50 (nM)

• Cc1[nH]c2ccccc2c1C1=CCCNC1 [Example 61] = 363
• CCc1ccc2[nH]cc(C3=CCCNC3)c2c1 [Example 25] = 592
• C1=C(c2c[nH]c3ncc(-c4ccccc4)cc23)CNCC1 [Example 4] = 294
• CN1CCC=C(c2n[nH]c3cc(Cl)ccc23)C1 [Example 94] = 309
• COc1cccc2c(C3=CCCN(C)C3)c[nH]c12 [Example 53] = 166
• Fc1ccnc2[nH]cc(C3=CCCNC3)c12 [Example 119] = 193
• Fc1cnc2[nH]cc(C3=CCCNC3)c2c1 [Example 120] = 21.5
• Cc1ccnc2[nH]cc(C3=CCCNC3)c12 [Example 9] = 489
• COc1cnc2[nH]cc(C3=CCCNC3)c2c1 [Example 2] = 135
• CN1CCC=C(c2n[nH]c3c(C#N)cccc23)C1 [Example 108] = 108
• COc1cnc2[nH]cc(C3=CCCN(C)C3)c2c1 [Example 6] = 44.1

* * *

measured_target: 5HT2A receptor (Homo sapiens, UniProt P28223)
assay_name: cell-based
Design: expressed in transfected cells; host or cells: HEK293T cells, transient co-transfection
run_conditions: BRET2 Gαq dissociation, HEK293T; read-out: 5HTA Gq EC50
measurement_kind: log10 EC50 (log10 of the value in nM)

• Fc1cc(Cl)c2[nH]nc(C3=CCCNC3)c2c1 = 0.49
• CN1CC=C(c2n[nH]c3c(Cl)cccc23)C1 = 1.71
• CCCN1CC=C(c2n[nH]c3c(Cl)cccc23)C1 = 1.86
• CN1CCC=C(c2c[nH]c3c(Cl)c(F)ccc23)C1 = 1.08
• CCCN1CCC=C(c2c[nH]c3c(C#N)cccc23)C1 = 1.97
• CCCN1CCC=C(c2n[nH]c3c(CC)cccc23)C1 = 1.53
• Clc1cccc2c(C34CNCC3C4)c[nH]c12 (single isomer, unassigned) [Example 278] = 0.97
• CC(C)N1CC=C(c2n[nH]c3c(Cl)cccc23)C1 = 1.41
• CN1CCC=C(c2n[nH]c3c(Cl)ccc(F)c23)C1 = 1.38
• C=CCc1cccc2c(C3=CCCN(C)C3)c[nH]c12 = 1.65
• Clc1cccc2c(C34CNCC3C4)c[nH]c12 (stereo not drawn) [Example 270] = 1.47
• CCCN1CCC=C(c2c[nH]c3c(C)cc(F)cc23)C1 = 1.92
• Fc1ccc2c(C34CNCC3C4)c[nH]c2c1 (stereo not drawn) = 1.72
• CCN1CCC=C(c2n[nH]c3c(Cl)cccc23)C1 = 1.37
• Clc1cccc2c(C3=CCNC3)n[nH]c12 = 1.16
• FCCCN1CCC=C(c2n[nH]c3c(Cl)cccc23)C1 = 1.93
• CCCN1CCC=C(c2n[nH]c3c(Cl)cc(F)cc23)C1 = 1.93
• Clc1cccc2c(C3=CCNCC3)n[nH]c12 = 1.81
• Cc1c(F)ccc2c(C3=CCCN(C)C3)c[nH]c12 = 1.42
• Clc1cccc2c(C34CNCC3C4)c[nH]c12 (single isomer, unassigned) [Example 277] = 1.92
• CCCN1CCC=C(c2n[nH]c3cccc(C#N)c23)C1 = 1.95

* * *

measured_target: 5HT2A receptor (Homo sapiens, UniProt P28223)
assay_name: biochemical
Assay type: binding
Design: expressed in transfected cells; crude membranes
run_conditions: 5HT2A Ki (nM), secondary radioligand binding, Ki from IC50 by Cheng-Prusoff
measurement_kind: log10(Ki) (log10 of the value in nM)

- Fc1cccc2c(C3=CCCN(Cc4ccccc4)C3)c[nH]c12 [Example 73]: 2.18
- CCCN1CCC=C(c2n[nH]c3c(Cl)cccc23)C1 [Example 123]: 2.15
- Clc1cnc2[nH]cc(C3=CCCNC3)c2c1 [Example 3]: 2.16
- COc1cccc2c(C3=CCCN(C)C3)c[nH]c12 [Example 53]: 2.57
- N#Cc1cccc2[nH]nc(C3=CCCNC3)c12 [Example 82]: 2.18
- COc1cnc2[nH]cc(C3=CCCN(C)C3)c2c1 [Example 6]: 2.84
- C#CCN1CCC=C(c2n[nH]c3c(Cl)cccc23)C1 [Example 125]: 3.29
- N#Cc1ccc2c(C3=CCCNC3)n[nH]c2c1 [Example 79]: 2.64
- CCc1cccc2c(C3=CCCNC3)c[nH]c12 [Example 50]: 2.39
- Cc1cccc2c(C3=CCCN(C)C3)n[nH]c12 [Example 105]: 3.13
- CN1CCC=C(c2n[nH]c3cc(C#N)ccc23)C1 [Example 96]: 3.74
- CN1CCC=C(c2n[nH]c3cccc(F)c23)C1 [Example 98]: 2.92
- CN1CCC=C(c2c[nH]c3c(C(C)(C)C)cccc23)C1 [Example 55]: 2.57
- CCc1cccc2c(C3=CCCNC3)c(Cl)[nH]c12 [Example 66]: 2.06
- CN1CCC=C(c2c[nH]c3cccc(-c4ccccc4)c23)C1 [Example 21]: 1.15
- CCc1cccc2c(C3=CCCNC3)n[nH]c12 [Example 121]: 2.63
- N#Cc1ccc2[nH]nc(C3=CCCNC3)c2c1 [Example 86]: 2.57
- CN1CCC=C(c2c[nH]c3c(O)cccc23)C1 [Example 60]: 2.90
- CN1CCC=C(c2c[nH]c3cc(Cl)ccc23)C1 [Example 32]: 2.37

* * *

measured_target: 5HT2A receptor (Homo sapiens, UniProt P28223)
assay_name: cell-based
Set-up: expressed in transfected cells; host or cells: HEK293T cells, transient co-transfection
run_conditions: HEK-293T, BRET1 beta-arrestin2 recruitment, HEK293T, normalized to 5-HT; read-out: 5HT2A β-Arr Emax (%)
measurement_kind: Emax (%)

* FC1(F)C2CNCC21c1n[nH]c2c(Cl)cccc12 (stereo not shown) | 76.5
* CCCN1CCC=C(c2c[nH]c3c(C)c(F)ccc23)C1 | 23.4
* CCCN1CCC=C(c2c[nH]c3c(C#N)cccc23)C1 | 39.3
* FC(F)(F)CCN1CCC=C(c2n[nH]c3c(Cl)cccc23)C1 | 23.3
* Cc1cccc2c(C34CNCC3C4)c[nH]c12 (stereo not shown) | 38
* Clc1cc(Br)cc2c(C3CNC3)c[nH]c12 | 20.8
* CN1CCC=C(c2c[nH]c3c(Cl)c(F)ccc23)C1 | 56.5
* CCN1CCC=C(c2n[nH]c3c(Cl)cccc23)C1 | 42.4
* Fc1ccc(Cl)c2[nH]nc(C3=CCCNC3)c12 | 72.7
* CC(C)N1CC=C(c2n[nH]c3c(Cl)cccc23)C1 | 71.9

* * *

measured_target: 5HT2A receptor (Homo sapiens)
assay_name: cell-based
Set-up: expressed in transfected cells; host or cells: HEK293T cells, transient co-transfection
run_conditions: BRET1 beta-arrestin2 recruitment, HEK293T; read-out: 5HT2A β-Arr EC50
pEC50: −log10 of the molar value.
measurement_kind: pEC50

* CCN1CCC=C(c2n[nH]c3c(Cl)cccc23)C1 | 7.11
* CN1CCC=C(c2c[nH]c3c(Cl)c(F)ccc23)C1 | 7.18
* Fc1ccc(Cl)c2[nH]nc(C3=CCCNC3)c12 | 7.76
* CN1CCC=C(c2n[nH]c3c(Cl)ccc(F)c23)C1 | 7.03
* CCCN1CCC=C(c2c[nH]c3c(F)cccc23)C1 | 7.21

* * *

Entries and their EC50
measured_target: 5HT2A receptor (Homo sapiens)
assay_name: cell-based
Parameters: expressed in transfected cells; host or cells: HEK293T cells, transient co-transfection
run_conditions: BRET2 Gαq dissociation, HEK293T cells; read-out: 5HT2A Gq EC50
measurement_kind: EC50 (nM)

* CCN1CCC=C(c2c[nH]c3c(Cl)cccc23)C1 [Example 126] | 40.2
* N#Cc1cccc2c(C3=CCCNC3)n[nH]c12 [Example 91] | 17.2
* Fc1ccc2[nH]nc(C3=CCCNC3)c2c1 [Example 85] | 2.8
* CN1CCC=C(c2n[nH]c3ccc(F)cc23)C1 [Example 102] | 9
* CCc1cccc2c(C3=CCCNC3)c[nH]c12 [Example 50] | 4.7
* COc1ccnc2[nH]cc(C3=CCCN(C)C3)c12 [Example 14] | 72.7
* COc1cccc2[nH]nc(C3=CCCNC3)c12 [Example 83] | 12.5
* Cc1cccc2[nH]nc(C3=CCCN(C)C3)c12 [Example 97] | 80.4
* Fc1cccc2[nH]nc(C3=CCCNC3)c12 [Example 81] | 26.5
* C=CCN1CCC=C(c2n[nH]c3c(Cl)cccc23)C1 [Example 124] | 49.6
* COc1ccc2[nH]nc(C3=CCCN(C)C3)c2c1 [Example 104] | 82.8

Origin of values: patent US20260265246A1
